assay: The drug is tested on Eubacterium ventriosum strain: ATCC27560 for biotransformation. The drug concentrations were measured before and after a 12-h incubation by liquid-chromatography-coupled mass spectrometry (LC–MS); assay type: ADME; parameters: dose 2 uM, timepoint 0 vs 12 hours; conditions: 2 µM
MEASURED ENDPOINT: Bacterial Biotransformation

Some molecules with recorded Bacterial Biotransformation:
molecule="CC(=O)O[C@]1(C(C)=O)CC[C@H]2[C@@H]3C=C(C)C4=CC(=O)CC[C@]4(C)[C@H]3CC[C@@]21C [MEGESTROL ACETATE]" reported_value="Compound NOT metabolized"
molecule=CNNCc1ccc(C(=O)NC(C)C)cc1 reported_value="Compound NOT metabolized"
molecule=CC[C@@]1(O)C(=O)OCc2c1cc1n(c2=O)Cc2cc3c(CN(C)C)c(O)ccc3nc2-1 reported_value="Compound NOT metabolized"
molecule="CCC(COC(=O)c1cc(OC)c(OC)c(OC)c1)(c1ccccc1)N(C)C.O=C(O)/C=C\\C(=O)O (centres undefined)" reported_value="Compound metabolized"

Task item: Form field: reported Bacterial Biotransformation of CC(=O)SCC(Cc1ccccc1)C(=O)NCC(=O)OCc1ccccc1 (centres undefined)
Reply: Compound metabolized

Task item: Form field: reported Bacterial Biotransformation of CN1CCc2c(c3ccccc3n2Cc2ccccc2)C1.CN1CCc2c(c3ccccc3n2Cc2ccccc2)C1.O=S(=O)(O)c1cccc2c(S(=O)(=O)O)cccc12
Reply: Compound NOT metabolized

Task item: Form field: reported Bacterial Biotransformation of Cc1nc(-c2ccc(OCC(C)C)c(C#N)c2)sc1C(=O)O
Reply: Compound NOT metabolized

Task item: Form field: reported Bacterial Biotransformation of Cc1ccc(-c2cc(C(F)(F)F)nn2-c2ccc(S(N)(=O)=O)cc2)cc1
Reply: Compound NOT metabolized

Task item: Form field: reported Bacterial Biotransformation of Nc1nc(N)nc(-c2cc(Cl)ccc2Cl)n1.O=C(O)/C=C\C(=O)O [IRSOGLADINE MALEATE]
Reply: Compound NOT metabolized

====

biological target: Esterase (Phocaeicola dorei, UniProt B6W2J6); assay: The drug is tested on Bacteroides dorei strain: DSM17855 for biotransformation. The drug concentrations were measured before and after a 12-h incubation by liquid-chromatography-coupled mass spectrometry (LC–MS); format: ADME; parameters: dose 2 uM; conditions: 2 µM
Sequence (B6W2J6 whole entry): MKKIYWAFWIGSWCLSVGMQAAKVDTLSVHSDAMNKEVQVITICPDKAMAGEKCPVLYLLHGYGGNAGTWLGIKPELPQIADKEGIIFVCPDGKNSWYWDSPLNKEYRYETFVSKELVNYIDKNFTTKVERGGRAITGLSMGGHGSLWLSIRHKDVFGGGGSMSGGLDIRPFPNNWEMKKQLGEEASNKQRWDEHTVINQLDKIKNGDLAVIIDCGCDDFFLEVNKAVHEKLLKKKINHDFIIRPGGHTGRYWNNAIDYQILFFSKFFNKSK
MEASURED ENDPOINT: Bacterial Biotransformation

compound="CCS(=O)(=O)CCn1c([N+](=O)[O-])cnc1C [TINIDAZOLE]" tested_system="Esterase (Phocaeicola dorei, UniProt B6W2J6)" measured_endpoint="Bacterial Biotransformation" reported_value="Compound NOT metabolized"
compound="C#C[C@]1(OC(C)=O)CC[C@H]2[C@@H]3CCC4=CC(=O)CC[C@@H]4[C@H]3CC[C@@]21C [NORETHINDRONE ACETATE]" tested_system="Esterase (Phocaeicola dorei, UniProt B6W2J6)" measured_endpoint="Bacterial Biotransformation" reported_value="Compound NOT metabolized"
compound="N#Cc1ccc2c(c1)N(CCCN1CCC(O)CC1)c1ccccc1S2 [PERICIAZINE]" tested_system="Esterase (Phocaeicola dorei, UniProt B6W2J6)" measured_endpoint="Bacterial Biotransformation" reported_value="Compound NOT metabolized"
compound="COc1ccc([C@@H]2Sc3ccccc3N(CCN(C)C)C(=O)[C@@H]2OC(C)=O)cc1 [DILTIAZEM]" tested_system="Esterase (Phocaeicola dorei, UniProt B6W2J6)" measured_endpoint="Bacterial Biotransformation" reported_value="Compound NOT metabolized"
compound="O=C(O)c1cc(/N=N/c2ccc(S(=O)(=O)Nc3ccccn3)cc2)ccc1O [SULFASALAZINE]" tested_system="Esterase (Phocaeicola dorei, UniProt B6W2J6)" measured_endpoint="Bacterial Biotransformation" reported_value="Compound NOT metabolized"
compound="CCOC(=O)C1=C(C)NC(C)=C(C(=O)OC)C1c1cccc([N+](=O)[O-])c1 (stereo not drawn) [NITRENDIPINE]" tested_system="Esterase (Phocaeicola dorei, UniProt B6W2J6)" measured_endpoint="Bacterial Biotransformation" reported_value="Compound NOT metabolized"

Task item: Esterase (Phocaeicola dorei, UniProt B6W2J6) / Bacterial Biotransformation / C#C[C@]1(O)CC[C@H]2[C@@H]3CCC4=Cc5oncc5C[C@]4(C)[C@H]3CC[C@@]21C [DANAZOL] : value?
Reply: Compound NOT metabolized

Task item: Esterase (Phocaeicola dorei, UniProt B6W2J6) / Bacterial Biotransformation / CC(=O)OCC(=O)NCCCOc1cccc(CN2CCCCC2)c1 [ROXATIDINE ACETATE] : value?
Reply: Compound NOT metabolized

====

conditions: bacteroides fragilis, 12 h, 2 µM
Description: The drug is tested on Bacteroides fragilis strain: 3397 (T10) for biotransformation. The drug concentrations were measured before and after a 12-h incubation by liquid-chromatography-coupled mass spectrometry (LC–MS)
MEASURED ENDPOINT: Bacterial Biotransformation

molecule=CCCCC(=O)N(Cc1ccc(-c2ccccc2-c2nnn[nH]2)cc1)[C@H](C(=O)O)C(C)C reported_value="Compound NOT metabolized"
molecule="CCOC(=O)[C@H](CCc1ccccc1)N[C@@H](C)C(=O)N1CCC[C@H]1C(=O)O.O=C(O)/C=C\\C(=O)O [ENALAPRIL MALEATE]" reported_value="Compound NOT metabolized"
molecule="O=C(O[C@H]1C[C@H]2CC[C@@H](C1)[N+]21CCCC1)C(O)(c1ccccc1)c1ccccc1.[Cl-] [TROSPIUM CHLORIDE]" reported_value="Compound NOT metabolized"

====

assay: The drug is tested on Providencia rettgeri strain: DSM1131 for biotransformation. The drug concentrations were measured before and after a 12-h incubation by liquid-chromatography-coupled mass spectrometry (LC–MS); assay type: ADME; design: dose 2 uM, timepoint 0 vs 12 hours; conditions: 2 µM
MEASURED ENDPOINT: Bacterial Biotransformation

Some molecules with recorded Bacterial Biotransformation:
molecule="CC(C(=O)O)c1ccc2c(c1)Cc1cccnc1O2 (stereo not drawn)" reported_value="Compound metabolized"
molecule=N#Cc1ccc(C(c2ccc(C#N)cc2)n2cncn2)cc1 reported_value="Compound NOT metabolized"
molecule="COc1ccccc1OCC(O)COC(N)=O (stereo not drawn)" reported_value="Compound NOT metabolized"
molecule=Cc1ccc(/C(=C\CN2CCCC2)c2ccccn2)cc1 reported_value="Compound NOT metabolized"
molecule="CC(C)c1c(CN(C)C(C)Cc2ccccc2)n(C)n(-c2ccccc2)c1=O (stereo not drawn)" reported_value="Compound NOT metabolized"

Task item: Form field: reported Bacterial Biotransformation of COC(=O)[C@H]1[C@H]2C[C@@H]3c4[nH]c5cc(OC)ccc5c4CCN3C[C@H]2C[C@@H](OC(=O)c2cc(OC)c(OC)c(OC)c2)[C@@H]1OC
Reply: Compound NOT metabolized

Task item: Form field: reported Bacterial Biotransformation of CCOC(=O)C1=C(C)NC(C)=C(C(=O)OC)C1c1cccc([N+](=O)[O-])c1 (stereo not drawn)
Reply: Compound metabolized

Task item: Form field: reported Bacterial Biotransformation of COc1cc(NC(C)CCCN)c2ncccc2c1.O=P(O)(O)O.O=P(O)(O)O (stereo not drawn) [PRIMAQUINE PHOSPHATE]
Reply: Compound NOT metabolized

====

conditions: bacteroides fragilis, 12 h, 2 µM
Description: The drug is tested on Bacteroides fragilis strain: NCTC 9343 for biotransformation. The drug concentrations were measured before and after a 12-h incubation by liquid-chromatography-coupled mass spectrometry (LC–MS)
MEASURED ENDPOINT: Bacterial Biotransformation

compound="CN(C)CC(c1ccc(O)cc1)C1(O)CCCCC1.O=C(O)CCC(=O)O (centres undefined) [DESVENLAFAXINE SUCCINATE]" reported_value="Compound NOT metabolized"
compound="COc1ccccc1OCC(O)CN1CCN(CC(=O)Nc2c(C)cccc2C)CC1 (centres undefined)" reported_value="Compound NOT metabolized"
compound="OC(c1cc(C(F)(F)F)nc2c(C(F)(F)F)cccc12)C1CCCCN1 (centres undefined)" reported_value="Compound NOT metabolized"

====

assay: The drug is tested on Bacteroides vulgatus strain: ATCC8482 for biotransformation. The drug concentrations were measured before and after a 12-h incubation by liquid-chromatography-coupled mass spectrometry (LC–MS); settings: phocaeicola vulgatus, 2 µM
MEASURED ENDPOINT: Bacterial Biotransformation

molecule=O=C([O-])C[C@H](O)C[C@H](O)/C=C/c1c(C2CC2)nc2ccccc2c1-c1ccc(F)cc1.O=C([O-])C[C@H](O)C[C@H](O)/C=C/c1c(C2CC2)nc2ccccc2c1-c1ccc(F)cc1.[Ca+2] reported_value="Compound NOT metabolized"
molecule="O=C1C(CC[S+]([O-])c2ccccc2)C(=O)N(c2ccccc2)N1c1ccccc1 (stereo not drawn)" reported_value="Compound NOT metabolized"
molecule=CCc1oc2ccccc2c1C(=O)c1cc(Br)c(O)c(Br)c1 reported_value="Compound NOT metabolized"

====

assay: The drug is tested on Edwardsiella tarda strain: ATCC23685 for biotransformation. The drug concentrations were measured before and after a 12-h incubation by liquid-chromatography-coupled mass spectrometry (LC–MS); details: 2 µM
MEASURED ENDPOINT: Bacterial Biotransformation

Some compounds with recorded Bacterial Biotransformation:
compound="CNNCc1ccc(C(=O)NC(C)C)cc1 [PROCARBAZINE]" reported_value="Compound NOT metabolized"
compound="CN1C(=O)CCS(=O)(=O)C1c1ccc(Cl)cc1 (centres undefined) [CHLORMEZANONE]" reported_value="Compound NOT metabolized"
compound="CN(C)CC(c1ccc(O)cc1)C1(O)CCCCC1.O=C(O)CCC(=O)O (centres undefined) [DESVENLAFAXINE SUCCINATE]" reported_value="Compound NOT metabolized"
compound=COc1ccc(/C=C/C(=O)Nc2ccccc2C(=O)O)cc1OC reported_value="Compound NOT metabolized"

Task item: Form field: reported Bacterial Biotransformation of COC(=O)C(c1ccccc1)C1CCCCN1 (centres undefined) [METHYLPHENIDATE]
Reply: Compound NOT metabolized

Task item: Form field: reported Bacterial Biotransformation of CC(C)(C)NC[C@H](O)COc1nsnc1N1CCOCC1.O=C(O)/C=C\C(=O)O [TIMOLOL MALEATE]
Reply: Compound NOT metabolized

Task item: Form field: reported Bacterial Biotransformation of C[C@@H](c1ncncc1F)[C@](O)(Cn1cncn1)c1ccc(F)cc1F [VORICONAZOLE]
Reply: Compound NOT metabolized

Task item: Form field: reported Bacterial Biotransformation of O=C(O)COCCN1CCN(C(c2ccccc2)c2ccc(Cl)cc2)CC1 (centres undefined) [CETIRIZINE]
Reply: Compound NOT metabolized

Task item: Form field: reported Bacterial Biotransformation of COc1cc2nc(N3CCN(C(=O)C4COc5ccccc5O4)CC3)nc(N)c2cc1OC.CS(=O)(=O)O (centres undefined) [DOXAZOSIN MESYLATE]
Reply: Compound NOT metabolized

Task item: Form field: reported Bacterial Biotransformation of O=C(CCCN1CCC(O)(c2ccc(Cl)cc2)CC1)c1ccc(F)cc1 [HALOPERIDOL]
Reply: Compound NOT metabolized

Task item: Form field: reported Bacterial Biotransformation of CC(=O)Nc1ccc(OC(C)=O)cc1 [DIACETAMATE]
Reply: Compound metabolized

Task item: Form field: reported Bacterial Biotransformation of CS(=O)(=O)O.O.O.O.O=C1Cc2cc(CCN3CCN(c4nsc5ccccc45)CC3)c(Cl)cc2N1 [ZIPRASIDONE MESYLATE]
Reply: Compound NOT metabolized

Task item: Form field: reported Bacterial Biotransformation of CS(=O)(=O)O.OC(CCN1CCCCC1)(c1ccccc1)c1ccccc1 [PRIDINOL METHANESULFONATE]
Reply: Compound NOT metabolized

Task item: Form field: reported Bacterial Biotransformation of N[C@@H](Cc1ccc(N(CCCl)CCCl)cc1)C(=O)O
Reply: Compound metabolized

Data origin: ChEMBL document CHEMBL5303573
